Target: human muscarinic M1 receptor (Homo sapiens, UniProt P11229)
Assay: Phospho-ERK1/2 assay, muscarinic M1
Format: cell-based
Settings: CHO, read-out: % Emax cf. ACh (M1)
Listed compounds paired with reported Emax
Value expressed in %; do not type the unit.

// below: answered compounds
>  <compound>
CCOC(=O)N1CCCC(N2CCC(F)(C(=O)NC(C)(C)CC)CC2)CC1 (centres unmarked) [Example 41]

>  <Emax [%]>
97

$$$$
>  <compound>
CCOC(=O)N1CCCC(N2CCC(C(=O)N(CC)CC3CC3)CC2)CC1 (centres unmarked) [Example 26]

>  <Emax [%]>
95

$$$$
>  <compound>
CCOC(=O)N1CCCC(N2CCC(F)(C(=O)NC(C)(C)C3CC3)CC2)CC1 (centres unmarked) [Example 54]

>  <Emax [%]>
124

$$$$
>  <compound>
CCOC(=O)N1CCCC(N2CCC(F)(C(=O)NC3CCC3)CC2)CC1 (centres unmarked) [Example 55]

>  <Emax [%]>
75

$$$$

Now look at this entry.
q: Any idea what Emax was measured for CCOC(=O)N1CCC[C@H](N2CCC(C(=O)NC3(C)CCC3)CC2)CC1 [Example 65] ?
a: 104

###

Target: human muscarinic M1 receptor (Homo sapiens)
Test: Phospho-ERK1/2 assay, muscarinic M1
Format: cell-based
Details: CHO, read-out: % Emax cf. ACh (M1)
property: Emax (%)
Report only the number, with the unit % understood.

>  <compound>
CCOC(=O)N1CCCC(N2CCC(C)(C(=O)NCC(C)C)CC2)CC1 (stereo not drawn)

>  <assayed.target>
human muscarinic M1 receptor (Homo sapiens)

>  <Emax / %>
108

$$$$
>  <compound>
CCOC(=O)N1CCCC(N2CCC(C(=O)NCC3(C)CCCC3)CC2)CC1 (stereo not drawn)

>  <assayed.target>
human muscarinic M1 receptor (Homo sapiens)

>  <Emax / %>
101

$$$$
>  <compound>
CCOC(=O)N1CCCC(N2CCC(C(=O)NCC3CC3)CC2)CC1 (stereo not drawn)

>  <assayed.target>
human muscarinic M1 receptor (Homo sapiens)

>  <Emax / %>
107

$$$$
>  <compound>
CCOC(=O)N1CCCC(N2CCC(C(=O)NC3(C)CCC3)CC2)CC1 (stereo not drawn)

>  <assayed.target>
human muscarinic M1 receptor (Homo sapiens)

>  <Emax / %>
117

$$$$
>  <compound>
CCOC(=O)N1CCCC(N2CCC(F)(C(=O)NCC(C)C)CC2)CC1 (stereo not drawn)

>  <assayed.target>
human muscarinic M1 receptor (Homo sapiens)

>  <Emax / %>
106

$$$$
>  <compound>
CCOC(=O)N1CCCC(N2CCC(OC)(C(=O)NCC3(C)CCC3)CC2)CC1 (stereo not drawn)

>  <assayed.target>
human muscarinic M1 receptor (Homo sapiens)

>  <Emax / %>
110

$$$$
>  <compound>
CCOC(=O)N1CCC[C@H](N2CCC(C(=O)NCC(C)C)CC2)CC1

>  <assayed.target>
human muscarinic M1 receptor (Homo sapiens)

>  <Emax / %>
107

$$$$
>  <compound>
CCOC(=O)N1CCCC(N2CCC(C(=O)NC(C)(C)C)CC2)CC1 (stereo not drawn)

>  <assayed.target>
human muscarinic M1 receptor (Homo sapiens)

>  <Emax / %>
111

$$$$

Field: next compound
q: Sample CCOC(=O)N1CCCC(N2CCC(C(=O)NCC(C)C3CC3)CC2)CC1 (stereo not drawn) — what was its Emax?
a: 96

###

Biological target: UniProtKB P11229
Sequence (P11229 1-460): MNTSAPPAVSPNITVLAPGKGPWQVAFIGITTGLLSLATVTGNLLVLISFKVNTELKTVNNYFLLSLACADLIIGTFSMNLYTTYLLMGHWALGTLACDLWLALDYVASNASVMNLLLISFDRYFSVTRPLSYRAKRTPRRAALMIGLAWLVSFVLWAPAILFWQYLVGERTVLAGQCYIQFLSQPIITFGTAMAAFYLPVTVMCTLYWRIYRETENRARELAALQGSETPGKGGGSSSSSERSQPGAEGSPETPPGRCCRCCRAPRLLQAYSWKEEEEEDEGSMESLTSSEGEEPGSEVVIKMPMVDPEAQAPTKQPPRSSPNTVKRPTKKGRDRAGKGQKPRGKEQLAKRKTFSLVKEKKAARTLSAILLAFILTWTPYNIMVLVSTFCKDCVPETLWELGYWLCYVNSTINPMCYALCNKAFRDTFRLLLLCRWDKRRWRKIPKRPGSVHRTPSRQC
Assay: Phospho-ERK1/2 assay, muscarinic M1
Type: cell-based
Settings: CHO cells expressing human M1; phospho-ERK1/2 Alphascreen; read-out: pEC50 M1 (converted)
Method: Functional assays were performed using the Alphascreen Surefire phospho-ERK1/2 assay (Crouch & Osmond, Comb. Chem. High Throughput Screen, 2008). […] Plates were incubated for 2 h with gentle agitation in the dark and then read on a PHERAstar plate reader. pEC50 and Emax figures were calculated from the resulting data for each receptor subtype.
property: log10(EC50) (log10 of the value in nM)
Note the log scale: values are log10 of EC50 expressed in nM.

q: Please look up its log10(EC50): CCOC(=O)N1CCCC(N2CCC(F)(C(=O)NC(C)(C)C3CC3)CC2)CC1 (stereo not drawn) [Example 54]
a: 1.69

q: Please look up its log10(EC50): CCOC(=O)N1CCCC(N2CCC(C(=O)NCC3CC3)CC2)CC1 (stereo not drawn) [Example 15]
a: 2.05

q: log10(EC50) for CCOC(=O)N1CCC[C@H](N2CCC(C(=O)NC(C)(C)C)CC2)CC1 [Example 67] ?
a: 2.10

q: // query log10(EC50) value for entry CCOC(=O)N1CCC[C@@H](N2CCC(C(=O)NC3(C)CCC3)CC2)CC1 [Example 66]
a: 2.44

q: Data request, read-out log10(EC50), for CCOC(=O)N1CCCC(N2CCC(C(=O)NCC3(C)CCCC3)CC2)CC1 (stereo not drawn) [Example 18]
a: 1.92

q: Entry CCOC(=O)N1CCCC(N2CCC(OC)(C(=O)NCC3(C)CCC3)CC2)CC1 (stereo not drawn) [Example 81] has what log10(EC50)?
a: 2.15

q: Quick check: log10(EC50) of CCOC(=O)N1CCCC(N2CCC(C(=O)NCC(C)C3CC3)CC2)CC1 (stereo not drawn) [Example 39] ?
a: 1.86

q: Query: log10(EC50); subject: CCOC(=O)N1CCCC(N2CCC(C(=O)NC3(C(F)(F)F)CCC3)CC2)CC1 (stereo not drawn) [Example 70]
a: 2.43

q: // returns reported log10(EC50) for input CCOC(=O)N1CCC[C@@H](N2CCC(C(=O)NC(C)(C)C)CC2)CC1 [Example 68]
a: 2.91

q: Bench note: what log10(EC50) did CCOC(=O)N1CCCC(N2CCC(C(=O)NCC3(C)CCC3)CC2)CC1 (stereo not drawn) [Example 69] show?
a: 1.02

q: What log10(EC50) value was documented for this molecule, CCOC(=O)N1CCCC(N2CCC(C(=O)N(CC)CC3CC3)CC2)CC1 (stereo not drawn) [Example 26] ?
a: 2.65

q: Fill in: log10(EC50) of CCOC(=O)N1CCCC(N2CCC(C(=O)NCC(C)C)CC2)CC1 (stereo not drawn) [Example 6] is ___
a: 1.93

q: Give the measured log10(EC50) of CCOC(=O)N1CCCC(N2CCC(C(=O)NC3(C)CCCCC3)CC2)CC1 (stereo not drawn) [Example 17] .
a: 1.79

q: Which log10(EC50) value is on record for CCOC(=O)N1CCCC(N2CCC(C)(C(=O)NC3(C)CCC3)CC2)CC1 (stereo not drawn) [Example 78] ?
a: 1.63

q: Find the recorded log10(EC50) belonging to CCOC(=O)N1CCCC(N2CCC(F)(C(=O)NC(C)(C)C(C)C)CC2)CC1 (stereo not drawn) [Example 44] and report it.
a: 1.50

q: Fill in the blank: the reported log10(EC50) of CCOC(=O)N1CCCC(N2CCC(OC)(C(=O)NC3(C)CCC3)CC2)CC1 (stereo not drawn) [Example 79] is ____.
a: 1.99

q: State the recorded log10(EC50) for this entry: [2H]C([2H])([2H])C([2H])(C([2H])([2H])[2H])C([2H])([2H])NC(=O)C1CCN(C2CCCN(C(=O)OCC)CC2)CC1 (stereo not drawn) [Example 75]
a: 1.94

q: Fill in: log10(EC50) of CCOC(=O)N1CCCC(N2CCC(F)(C(=O)NC3CCC3)CC2)CC1 (stereo not drawn) [Example 55] is ___
a: 2.27

###

Target: human muscarinic M4 receptor (Homo sapiens)
Construct: expressed in transfected cells
Sequence (P08173 whole entry): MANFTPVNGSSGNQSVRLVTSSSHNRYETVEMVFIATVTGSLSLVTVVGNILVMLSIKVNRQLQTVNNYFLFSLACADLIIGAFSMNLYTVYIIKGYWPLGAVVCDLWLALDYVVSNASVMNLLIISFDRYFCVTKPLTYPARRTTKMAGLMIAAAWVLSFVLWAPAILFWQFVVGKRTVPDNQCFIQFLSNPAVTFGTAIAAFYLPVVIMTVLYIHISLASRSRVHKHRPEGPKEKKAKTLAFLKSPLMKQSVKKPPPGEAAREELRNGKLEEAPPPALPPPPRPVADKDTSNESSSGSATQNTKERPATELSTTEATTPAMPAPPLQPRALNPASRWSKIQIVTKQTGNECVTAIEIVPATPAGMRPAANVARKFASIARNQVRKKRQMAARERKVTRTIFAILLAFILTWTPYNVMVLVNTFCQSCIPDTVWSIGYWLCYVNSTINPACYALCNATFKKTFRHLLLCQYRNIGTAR
Assay: Phospho-ERK1/2 assay, muscarinic M4
Assay type: cell-based
Settings: CHO, read-out: % Emax cf. ACh (M4)
property: Emax
Number first, unit second: that is the form wanted.

q: Please look up its Emax: CCOC(=O)N1CCCC(N2CCC(C(=O)NC(C)(C)C(C)C)CC2)CC1 (stereo not shown) [Example 31]
a: 90%
